Biological target: GTPase KRas [G12D,C118A] (Homo sapiens, UniProt P01116, C118A/G12D)
Sequence (P01116 whole entry G12D/C118A, looked up): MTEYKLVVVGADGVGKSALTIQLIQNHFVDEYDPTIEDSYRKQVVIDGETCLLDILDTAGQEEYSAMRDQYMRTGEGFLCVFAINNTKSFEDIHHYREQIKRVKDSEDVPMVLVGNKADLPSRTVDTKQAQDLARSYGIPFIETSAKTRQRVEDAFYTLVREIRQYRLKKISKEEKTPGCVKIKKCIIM
Test: KRAS G12D Coupled Nucleotide Exchange Assay
Reported IC50 values for a set of compounds

{"compound": "N#Cc1c(N)sc2c(F)ccc(-c3c(Cl)cc4c(N5CC6CC(O)C(C6)C5)nc(OC[C@@]56CCCN5C[C@H](F)C6)nc4c3F)c12 (mixture of isomers)", "IC50": "6 nM"}
{"compound": "N#Cc1c(N)sc2c(F)ccc(-c3c(Cl)cc4c(N5CCOCC(=O)C5)nc(OC[C@@]56CCCN5C[C@H](F)C6)nc4c3F)c12", "IC50": "5 nM"}
{"compound": "N#Cc1c(N)sc2c(F)ccc(-c3c(Cl)cc4c(N5CCCC(C#N)CC5)nc(OC[C@@]56CCCN5C[C@H](F)C6)nc4c3F)c12 (stereo not given in full)", "IC50": "7 nM"}
{"compound": "N#Cc1c(N)sc2c(F)ccc(-c3c(Cl)cc4c(N5CCCC6(CNC(=O)O6)C5)nc(OC[C@@]56CCCN5C[C@H](F)C6)nc4c3F)c12 (stereo not given in full)", "IC50": "6 nM"}
{"compound": "N#Cc1c(N)sc2c(F)ccc(-c3c(Cl)cc4c(N5CCCC[C@@H](O)C5)nc(OC[C@@]56CCCN5C[C@H](F)C6)nc4c3F)c12", "IC50": "6 nM"}

Numbers sourced from BindingDB's records for patent US20250163064.
